tested on: UISO cells (VN-MCC); test: qHTS cell viability (CellTiter-Glo, 72 h; primary and follow-up small molecule screen); type: cell-based, human; details: follow-up screen; UISO; replicate 2
Counter-ions that a name gives are not always drawn.
observed.property: Area under the dose-response curve (AUC) UISO Replicate 2

compound	test.target	number
Cc1ccc(NC(=O)c2cccc(N(C)C)c2)cc1NC(=O)c1ccc(O)cc1	UISO cells (VN-MCC)	464.6
CCN(CCO)CCCC(C)Nc1ccnc2cc(Cl)ccc12 (stereo not drawn) [Hydroxychloroquine sulfate]	UISO cells (VN-MCC)	448.6
O=c1cc(-c2ccc(O)cc2)oc2cc(O)cc(O)c12	UISO cells (VN-MCC)	489.3
CCc1c2c(nc3ccc(O)cc13)-c1cc3c(c(=O)n1C2)COC(=O)[C@]3(O)CC	UISO cells (VN-MCC)	148.1
C/C=C(/C)C(=O)O[C@H]1C(C)=C2[C@H]([C@@H]1OC(=O)CCCCCCC)[C@@](C)(OC(C)=O)C[C@H](OC(=O)CCC)[C@@]1(O)[C@H]2OC(=O)[C@@]1(C)O	UISO cells (VN-MCC)	234.5
CC(=O)O[C@]1(C(C)=O)CC[C@H]2[C@@H]3C=C(C)C4=CC(=O)CC[C@]4(C)[C@H]3CC[C@@]21C [Megestrol acetate]	UISO cells (VN-MCC)	467.2
COc1ccc2c(c[n+](C)c3c4cc5c(cc4ccc23)OCO5)c1OC [Chelerythrine chloride]	UISO cells (VN-MCC)	419.6
O=c1cc(-c2ccc(O)c(O)c2)oc2cc(O)cc(O)c12	UISO cells (VN-MCC)	498.3
Nc1nc(Cl)nc2c1ncn2[C@@H]1O[C@H](CO)[C@@H](O)[C@@H]1F	UISO cells (VN-MCC)	296.3
CN(C)C(=S)SSC(=S)N(C)C	UISO cells (VN-MCC)	292.8
CCCCCCC[N+](CC)(CC)CCCCc1ccc(Cl)cc1.Cc1ccc(S(=O)(=O)[O-])cc1 [Clofilium tosylate]	UISO cells (VN-MCC)	366.0
CN(C(Cc1ccc(O[S+](=O)([O-])c2cccc3cnccc23)cc1)C(=O)N1CCN(c2ccccc2)CC1)[S+](=O)([O-])c1cccc2cnccc12 (stereo not drawn)	UISO cells (VN-MCC)	471.7
CCCCCCCCCCCCCCCC[N+](C)(C)CC [Ethylhexadecyldimethylammonium bromide]	UISO cells (VN-MCC)	364.3
C[C@@H]1O[C@@H](O[C@H]2C[C@@H](O)[C@]3(CO)[C@H]4[C@H](O)C[C@]5(C)[C@@H](C6=CC(=O)OC6)CC[C@]5(O)[C@@H]4CC[C@]3(O)C2)[C@H](O)[C@H](O)[C@H]1O	UISO cells (VN-MCC)	235.2
N#CC(=C(/N)Sc1ccccc1N)/C(C#N)=C(\N)Sc1ccccc1N	UISO cells (VN-MCC)	403.9
